System: Human immunodeficiency virus 2
Experiment notes: Antiviral activity against HIV2 ROD assessed as reduction in cytopathic effect in MT4 cells
Type: functional, organism-based
Cond: Human immunodeficiency virus 2, ROD
Parameter measured: EC50 (µM)

INSERT INTO measurements (smiles_entry, target_or_system, number) VALUES
  ('c1cc(CN2CCCN3CCN(CCCNCC2)CC3)ccc1CN1CCCN2CCN(CCCNCC1)CC2', 'Human immunodeficiency virus 2', 23.2);
